Test: NCI Yeast Anticancer Drug Screen. Data for the cln2 rad14 strain (AID 165);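 note: 0% = growth equal to vehicle treated cultures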
Details: S. cerevisiae cln2 rad14 strain, at 50.0 µM, hits give high values
The panel holds about 79,000 compounds, 15% with a hit somewhere; the sample as a whole holds those more often.
Property Name: growth inhibition (%)
Please state the figure in %; there is no need to write the unit.

>  <Compound>
COc1ccc(C(c2c(O)c3ccccc3n(C)c2=O)c2c(O)c3ccccc3n(C)c2=O)cc1

>  <Property Name>
growth inhibition

>  <Units Text>
%

>  <Recorded Result>
-33.5

$$$$
>  <Compound>
CCOC(=O)c1c(N2CCCC2)ncn(Cc2ccccc2)c1=S

>  <Property Name>
growth inhibition

>  <Units Text>
%

>  <Recorded Result>
-7.75

$$$$
>  <Compound>
CN(C)c1ccc(/C=C/c2ccc(/C=C/c3ccc(N(C)C)cc3)cc2)cc1

>  <Property Name>
growth inhibition

>  <Units Text>
%

>  <Recorded Result>
10.2

$$$$

Reported growth inhibition for COC(=O)CC(NC(=O)OCc1ccccc1)C(=O)NCC(=O)NCC(=O)O (configuration not stated) : what is it?
14.3

Reported growth inhibition for "COc1ccc(Cc2ccccc2C(=O)c2ccc(OC)cc2)cc1" : what is it?
-4.65

Reported growth inhibition for CCOC(=O)C(CC1OCCO1)C1=NC(C)(C)CC(C)O1 (configuration not stated) : what is it?
-0.05

Reported growth inhibition for "CCCCCSC1CCCC1" : what is it?
-2.2

###

Assay: NCI Yeast Anticancer Drug Screen. Data for the bub3 strain (AID 167)
Settings: S. cerevisiae bub3 mutant strain, at 50.0 µM, hits give high values
The panel holds about 79,000 compounds, 15% with a hit somewhere; the sample as a whole holds those more often.
# growth inhibition per entry
Please state the figure in %; there is no need to write the unit.

>  <Compound>
Cc1ccc(S(=O)(=O)OCC2C(COS(=O)(=O)c3ccc(C)cc3)C3C=CC2C32CC2)cc1 (centres undefined)

>  <Recorded Result>
91

$$$$
>  <Compound>
O=C1c2cccc3c(Br)ccc(c23)C(=O)N1CCCN1CCOCC1

>  <Recorded Result>
92.5

$$$$
>  <Compound>
CSC(=S)/C(=C/Nc1ccccn1)c1ccccc1

>  <Recorded Result>
37.8

$$$$
>  <Compound>
CCCCCCCCCCCCc1ccc(CS)cc1

>  <Recorded Result>
51.3

$$$$
>  <Compound>
CC1CN(C(c2ccccc2)c2ccccc2)CCN1CCO (centres undefined)

>  <Recorded Result>
4.85

$$$$
>  <Compound>
Cc1ccc(S(=O)(=O)/N=C/C=P(c2ccccc2)(c2ccccc2)c2ccccc2)cc1

>  <Recorded Result>
-2.1

$$$$

Reported growth inhibition for "CCCCCCCCc1ccccc1" : what is it?
9.75

Reported growth inhibition for "C1=Nc2ccccc2/C1=C/C=C/c1ccccc1" : what is it?
41.5

Reported growth inhibition for O=C(COc1ccccc1Cl)N1N=C(c2ccc(Cl)cc2)CC1(O)c1ccccc1 (centres undefined) : what is it?
-25.8

###

Test: NCI Yeast Anticancer Drug Screen. Data for the mlh1 rad18 strain (AID 175)
Conditions: S. cerevisiae mlh1 rad18 strain growth inhibition; at 50.0 µM; hits give high values
This is part of a sample that, as a whole, favours compounds with a hit. Of some 79,000 tested, about 15% had one in any assay.
# growth inhibition per entry
Please state the figure in %; there is no need to write the unit.

Study these solved cases before continuing.
>  <Compound>
O=c1[nH]cc(CNC2CCCCC2)c(=O)[nH]1

>  <growth inhibition (%)>
8.2

$$$$
>  <Compound>
CC(=O)NNC(=O)c1ccccc1CO

>  <growth inhibition (%)>
20.9

$$$$

Reported growth inhibition for COCC(O)CN1CCN(c2ccccc2OC)CC1 (stereo not drawn) : what is it?
-13.2

###

# growth inhibition per entry
Assay: NCI Yeast Anticancer Drug Screen. Data for the rad50 strain (AID 155);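 note: 0% = growth of vehicle-only cultures of the same strain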
Conditions: S. cerevisiae rad50 strain growth inhibition; at 50.0 µM; hits give high values
Compounds without any hit were thinned out: in the full panel of roughly 79,000, 15% have a hit.
Please state the figure in %; there is no need to write the unit.

Study these solved cases before continuing.
>  <Compound>
Cc1c(Cl)cccc1NC(=O)Nc1ccccc1F

>  <Property Name>
growth inhibition

>  <Recorded Result>
14.2

$$$$
>  <Compound>
CC/C=N/Nc1ccc([N+](=O)[O-])cc1[N+](=O)[O-]

>  <Property Name>
growth inhibition

>  <Recorded Result>
15.6

$$$$
>  <Compound>
O=c1cc([O-])[n+](C2OC(CO)C(O)C2O)c2sccn12 (configuration not stated)

>  <Property Name>
growth inhibition

>  <Recorded Result>
10.2

$$$$
>  <Compound>
CCN1C(=NCCO)NS(=O)(=O)c2ccccc21

>  <Property Name>
growth inhibition

>  <Recorded Result>
-17.2

$$$$
>  <Compound>
CCc1nnc(CC)n1NCCCC(=O)O

>  <Property Name>
growth inhibition

>  <Recorded Result>
26.3

$$$$

Reported growth inhibition for CCCC(C)C1(CCC)C(=O)N=C(N)N=C1N (configuration not stated) : what is it?
3.8

Reported growth inhibition for "CC(C)CCNC(=O)CS(=O)(=O)c1ccc(N)cc1" : what is it?
-2.15

Reported growth inhibition for CCC(C)OC(=O)C1C(=O)CC(c2ccccc2)C1c1ccccc1 (configuration not stated) : what is it?
-2.2

Reported growth inhibition for "CC(=O)NCCSC(=O)CCCCCCCCC(=O)SCCNC(C)=O" : what is it?
11.8

Reported growth inhibition for "O=C1Nc2ccccc2/C1=N/N1C(=O)CSC1=S" : what is it?
28.6

Reported growth inhibition for CCCCCCCCCCCCCCCCCCCC/C=C/C1CC(=O)OC1=O (configuration not stated) : what is it?
-4.8

Reported growth inhibition for "Fc1ccc2nncc(SCc3ccc(Cl)cc3)c2c1" : what is it?
-4.1

Reported growth inhibition for "NC(=S)Nc1ccccc1-c1ccccc1" : what is it?
36.2

Reported growth inhibition for "ClCC(OCc1ccccc1)OCc1ccccc1" : what is it?
-21.6

Reported growth inhibition for "O=C(N/N=C\c1ccc(Cl)cc1Cl)c1ccc(F)cc1" : what is it?
-10.5

Reported growth inhibition for "CC(C)N1C(=O)NC(=O)C12CCN(Cc1ccccc1)CC2" : what is it?
-1.5

Reported growth inhibition for "CC1(C)Nc2cc3c(cc2-n2cccc21)oc1ccccc13" : what is it?
17.3

###

# growth inhibition per entry
Experiment: NCI Yeast Anticancer Drug Screen. Data for the cln2 rad14 strain (AID 165);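 note: 0% = growth equal to vehicle treated cultures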
Details: S. cerevisiae cln2 rad14 strain, at 50.0 µM, hits give high values
About 79,000 compounds went through this panel and 15% of them were active in at least one assay; those are over-represented in the sample as a whole. Where a SMILES comes first, the peptide text is derived from it. [ ]: non-standard residue; d: D form. The star is where a group is joined. Cbz = O=C(OCc1ccccc1)*; Nva = CCC[CH](N)C(=O)O
Please state the figure in %; there is no need to write the unit.

Reported growth inhibition for "CCOc1ccccc1Nc1nc(C)c(C(=O)CC(=O)C(=O)Nc2ccccc2)s1" : what is it?
9.45

Reported growth inhibition for CC(CO)(NC(=O)c1ccccc1)C(=O)O (stereo not given) : what is it?
11.1

Reported growth inhibition for "Cc1cc(C(N)=O)c(C(N)=O)c(=O)[nH]1" : what is it?
-7.5

Reported growth inhibition for "Cc1ccc(NC(=O)CC#N)c(C)c1" : what is it?
-40.9

Reported growth inhibition for CCCC(NC(=O)OCc1ccccc1)C(=O)NC(CCSC)C(=O)O (stereo not given) (Cbz-[Nva]-Met-OH; configuration not given here) : what is it?
11.5

Reported growth inhibition for "CCCCC1=C(C)CCC1=O" : what is it?
6.55

Reported growth inhibition for "CCN(CC)c1ccc(-c2c3ccccc3nc3ccccc23)cc1" : what is it?
-12.4

Reported growth inhibition for CS(=O)(=O)OC1CCCCC1OS(C)(=O)=O (stereo not given) : what is it?
-1.85

Reported growth inhibition for "Clc1ccc2sc(-n3ccc4ccccc43)nc2c1" : what is it?
7.65

Reported growth inhibition for O=C1NCCN(CCc2ccccc2)C1c1ccccc1 (stereo not given) : what is it?
-31.9

Reported growth inhibition for "Cc1ccc(NC(=O)CN2CCCCC2)cc1" : what is it?
3.9

Reported growth inhibition for "COc1ccccc1/C=C(\C#N)C(=O)O" : what is it?
8.6

###

# growth inhibition per entry
Assay: NCI Yeast Anticancer Drug Screen. Data for the sgs1 mgt1 strain (AID 161);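 note: 0% = growth of cultures given vehicle only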
Settings: S. cerevisiae sgs1 mgt1 strain, at 50.0 µM, hits give high values
Protocol: Growth inhibition of yeast strains with defined genetic alterations is measured as a screen for potential anti-cancer activity. Selected strains with alterations in DNA damage repair or cell cycle control were exposed to compounds and growth inhibition was measured relative to vehicle treated controls. The strain used in this assay is sgs1 mgt1
This is part of a sample that, as a whole, favours compounds with a hit. Of some 79,000 tested, about 15% had one in any assay. Active and inactive are the calls of the source. Cut-off read from the data, not from the text of the source: active = growth inhibition above about 70%; inactive = the rest.

Study these solved cases before continuing.
>  <Compound>
CC(C)NC(=O)Oc1ccccc1C(=O)OCc1ccccc1

>  <growth inhibition>
28.9% (inactive)

$$$$
>  <Compound>
O=C(NCCO)[C@H](O)[C@@H](O)[C@H](O)[C@H](O)CO

>  <growth inhibition>
-3.7% (inactive)

$$$$
>  <Compound>
OC(CCCCCCCCC(O)CN1CCCCC1)CN1CCCCC1 (stereo not given)

>  <growth inhibition>
5.45% (inactive)

$$$$

Reported growth inhibition for "Clc1ccc2nc(/C=C/c3ccccc3)cnc2c1" : what is it?
13.3% (inactive)

Reported growth inhibition for "CC1(C)C(=NNC(=S)NN)C(C)(C)C1=NNC(=S)NN" : what is it?
42.4% (inactive)

Reported growth inhibition for "CC(=O)Nc1cc(C)cc(Br)c1" : what is it?
-10.1% (inactive)

Reported growth inhibition for "C/C(N=NC(=S)N(C)C)=C1\C=CC=CN1O" : what is it?
8.1% (inactive)

Reported growth inhibition for "CCOC(=O)C(CN1CCN(CC(NC=O)(C(=O)OCC)C(=O)OCC)CC1)(NC=O)C(=O)OCC" : what is it?
-11.9% (inactive)

Reported growth inhibition for "COc1ccc2[nH]c(=O)cc(C)c2c1" : what is it?
-1.6% (inactive)

Reported growth inhibition for O=P(O)(O)OP(=O)(O)OCC1OC(n2cnc3c(=S)nc[nH]c32)C(O)C1O (stereo not given) : what is it?
-5% (inactive)

Reported growth inhibition for Cc1cc(Cl)ccc1N=C1NC(=O)C(CC(=O)Nc2ccc(Cl)cc2Cl)S1 (stereo not given) : what is it?
-2.35% (inactive)

Reported growth inhibition for NNc1ncnc2c(C3OC(CO)C(O)C3O)[nH]nc12 (stereo not given) : what is it?
8.2% (inactive)

Reported growth inhibition for "CCCCCCCCCCCCCCCCCCn1cnc2ncnc(Cl)c21" : what is it?
8.15% (inactive)

Reported growth inhibition for C#CC(C)(O)CCCCCC (stereo not given) : what is it?
12% (inactive)

Reported growth inhibition for "CCOC(=O)N1CCN(c2c(N)nc(C)[nH]c2=O)CC1" : what is it?
-55.3% (inactive)
